# System: SR
# Method notes: NCI tumour cell line growth inhibition, 48 h
Calls of active or inactive are those of the source. No stated cut-off is given here; in the data, active = GI50 up to about 1.1 µM and inactive = higher.
Outcome measure: GI50

Worked examples, 10 compounds total:
O=C1c2ccccc2C(=O)c2c1sc1nc3ccccc3n21: 3.53 µM (inactive)
CC1(C)C(C#N)C1C1=C(N2CCOCC2)[C@]2(C)C(OC(=O)c3ccccc3)CC[C@@H]2C1 (stereo partly specified): 61.5 µM (inactive)
COc1ccc(Cc2cc(OC)c(OC)c(OC)c2)cc1O: 0.0194 µM (active)
COc1ccc2cc(C(C)C(=O)N3CCOC3=O)ccc2c1 (stereo unspecified): > 100 µM (inactive)
NC(=O)Cn1c(=O)oc2cc(C(=O)CN3CCOCC3)ccc21: > 100 µM (inactive)
Cc1ccc(S(=O)(=O)OCC(=O)O)cc1: > 100 µM (inactive)
CC(=O)c1c2c(cc3c1CC1(Cc4cc5c(cc4C1=O)CCC5)C3)CCC2 (stereo unspecified): 6.64 µM (inactive)
CC1=C(CC2C(=O)N(c3ccccc3)S(=O)(=O)NC2C)C(=O)N(c2ccccc2)S(=O)(=O)N1C (stereo unspecified): > 100 µM (inactive)
CC(C)N(C(=O)C12C3C4C1C1C2C3C41I)C(C)C (stereo unspecified): > 100 µM (inactive)
COC(=O)C1C(O)C(C)C(O)C(C)/C=C\C=C(C)C(=O)Nc2c(C)c(OC(C)=O)c3c(c2O)C(=O)C(C)=C2OCOC(=C23)C(C)=CC(C)(O)C(O)C(C)C1O (stereo unspecified): 96.4 µM (inactive)

Turning now to a further record.
Enter measured GI50, system SR, for the compound shown: `NS(=O)(=O)c1ccc(NCc2cnc3ccccc3c2)cc1` > 100 µM (inactive)
